target: Human Factor B (human) (UniProt P00751); assay: cell-based or functional assay
Sequence (P00751 26-764 limits assumed): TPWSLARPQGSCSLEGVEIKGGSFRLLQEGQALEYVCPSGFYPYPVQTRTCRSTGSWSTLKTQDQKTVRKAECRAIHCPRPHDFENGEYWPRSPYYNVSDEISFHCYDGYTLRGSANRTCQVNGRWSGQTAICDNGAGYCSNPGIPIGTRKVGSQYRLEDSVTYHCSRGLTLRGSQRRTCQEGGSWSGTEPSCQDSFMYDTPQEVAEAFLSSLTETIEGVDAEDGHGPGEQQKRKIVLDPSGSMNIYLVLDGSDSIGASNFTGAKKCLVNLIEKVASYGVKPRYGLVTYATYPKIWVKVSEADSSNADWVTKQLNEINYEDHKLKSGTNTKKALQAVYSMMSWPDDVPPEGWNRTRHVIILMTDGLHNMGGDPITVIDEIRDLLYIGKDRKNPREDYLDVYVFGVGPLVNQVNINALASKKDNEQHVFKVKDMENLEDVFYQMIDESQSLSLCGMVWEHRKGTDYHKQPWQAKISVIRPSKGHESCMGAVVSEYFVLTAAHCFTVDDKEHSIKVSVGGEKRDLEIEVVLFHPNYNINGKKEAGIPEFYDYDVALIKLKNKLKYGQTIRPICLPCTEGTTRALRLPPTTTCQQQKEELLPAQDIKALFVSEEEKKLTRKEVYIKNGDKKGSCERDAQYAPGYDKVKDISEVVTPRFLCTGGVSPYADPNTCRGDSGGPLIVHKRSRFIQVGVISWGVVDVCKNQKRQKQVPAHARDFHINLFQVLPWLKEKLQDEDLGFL
MEASURE: fB Cleavage EC50

Determine its reported fB Cleavage EC50: chymase C22S/P38Q/K40M/F41R/V138I/F173Y/D175Y/A190S/V213A/S218I/A226R (enzyme) IIGGTESKPHSRPYMAYLEIVTSNGQSMRCGGFLIRRNFVLTAAHCAGRSITVTLGAHNITEEEDTWQKLEVIKQFRHPKYNTSTLHHDIMLLKLKEKASLTLAVGTLPFPSQFNFVPPGRMCRIAGWGRTGVLKPGSDTLQEVKLRLMDPQACSHYRYFDHNLQLCVGNPRKTKSSFKGDSGGPLLCAGVAQGIASYGRIDAKPPRVFTRISHYRPWINQILQAN
465 nM

Determine its reported fB Cleavage EC50: chymase C22S/P38Q/K40M/F41R/L99N/V138I/F173Y/D175T/A190S/V213A/S218V/A226R (enzyme) IIGGTESKPHSRPYMAYLEIVTSNGQSMRCGGFLIRRNFVLTAAHCAGRSITVTLGAHNITEEEDTWQKLEVIKQFRHPKYNTSTNHHDIMLLKLKEKASLTLAVGTLPFPSQFNFVPPGRMCRIAGWGRTGVLKPGSDTLQEVKLRLMDPQACSHYRTFDHNLQLCVGNPRKTKSSFKGDSGGPLLCAGVAQGIASYGRVDAKPPRVFTRISHYRPWINQILQAN
92.1 nM

Determine its reported fB Cleavage EC50: chymase C22S/P38Q/K40M/F41H/V138I/F173Y/D175R/A190S/V213A/S218V/A226R (enzyme) IIGGTESKPHSRPYMAYLEIVTSNGQSMHCGGFLIRRNFVLTAAHCAGRSITVTLGAHNITEEEDTWQKLEVIKQFRHPKYNTSTLHHDIMLLKLKEKASLTLAVGTLPFPSQFNFVPPGRMCRIAGWGRTGVLKPGSDTLQEVKLRLMDPQACSHYRRFDHNLQLCVGNPRKTKSSFKGDSGGPLLCAGVAQGIASYGRVDAKPPRVFTRISHYRPWINQILQAN
47.6 nM

Determine its reported fB Cleavage EC50: chymase C22S/P38Q/K40A/F41R/V138I/D175R/A190S/V213A/S218T/A226R (enzyme) IIGGTESKPHSRPYMAYLEIVTSNGQSARCGGFLIRRNFVLTAAHCAGRSITVTLGAHNITEEEDTWQKLEVIKQFRHPKYNTSTLHHDIMLLKLKEKASLTLAVGTLPFPSQFNFVPPGRMCRIAGWGRTGVLKPGSDTLQEVKLRLMDPQACSHFRRFDHNLQLCVGNPRKTKSSFKGDSGGPLLCAGVAQGIASYGRTDAKPPRVFTRISHYRPWINQILQAN
262 nM

Determine its reported fB Cleavage EC50: chymase C22S/P38Q/K40A/F41Q/V138I/F173S/D175W/A190S/V213A/S218V/A226R (enzyme) IIGGTESKPHSRPYMAYLEIVTSNGQSAQCGGFLIRRNFVLTAAHCAGRSITVTLGAHNITEEEDTWQKLEVIKQFRHPKYNTSTLHHDIMLLKLKEKASLTLAVGTLPFPSQFNFVPPGRMCRIAGWGRTGVLKPGSDTLQEVKLRLMDPQACSHSRWFDHNLQLCVGNPRKTKSSFKGDSGGPLLCAGVAQGIASYGRVDAKPPRVFTRISHYRPWINQILQAN
2190 nM

Determine its reported fB Cleavage EC50: chymase C22S/P38Q/K40A/F41R/L99H/V138I/F173Y/D175N/A190S/V213A/S218I/A226R (enzyme) IIGGTESKPHSRPYMAYLEIVTSNGQSARCGGFLIRRNFVLTAAHCAGRSITVTLGAHNITEEEDTWQKLEVIKQFRHPKYNTSTHHHDIMLLKLKEKASLTLAVGTLPFPSQFNFVPPGRMCRIAGWGRTGVLKPGSDTLQEVKLRLMDPQACSHYRNFDHNLQLCVGNPRKTKSSFKGDSGGPLLCAGVAQGIASYGRIDAKPPRVFTRISHYRPWINQILQAN
92.9 nM

Determine its reported fB Cleavage EC50: chymase C22S/P38Q/K40A/F41R/L99H/V138I/D175N/A190S/V213A/S218I/A226R (enzyme) IIGGTESKPHSRPYMAYLEIVTSNGQSARCGGFLIRRNFVLTAAHCAGRSITVTLGAHNITEEEDTWQKLEVIKQFRHPKYNTSTHHHDIMLLKLKEKASLTLAVGTLPFPSQFNFVPPGRMCRIAGWGRTGVLKPGSDTLQEVKLRLMDPQACSHFRNFDHNLQLCVGNPRKTKSSFKGDSGGPLLCAGVAQGIASYGRIDAKPPRVFTRISHYRPWINQILQAN
170 nM

Determine its reported fB Cleavage EC50: chymase C22S/K40L/F41K/L99Q/F173Y/D175N/S218V/A226R (enzyme) IIGGTESKPHSRPYMAYLEIVTSNGPSLKCGGFLIRRNFVLTAAHCAGRSITVTLGAHNITEEEDTWQKLEVIKQFRHPKYNTSTQHHDIMLLKLKEKASLTLAVGTLPFPSQFNFVPPGRMCRVAGWGRTGVLKPGSDTLQEVKLRLMDPQACSHYRNFDHNLQLCVGNPRKTKSAFKGDSGGPLLCAGVAQGIVSYGRVDAKPPRVFTRISHYRPWINQILQAN
110 nM

Determine its reported fB Cleavage EC50: chymase C22S/K40L/F41A/K192R/A226R (enzyme) IIGGTESKPHSRPYMAYLEIVTSNGPSLACGGFLIRRNFVLTAAHCAGRSITVTLGAHNITEEEDTWQKLEVIKQFRHPKYNTSTLHHDIMLLKLKEKASLTLAVGTLPFPSQFNFVPPGRMCRVAGWGRTGVLKPGSDTLQEVKLRLMDPQACSHFRDFDHNLQLCVGNPRKTKSAFRGDSGGPLLCAGVAQGIVSYGRSDAKPPRVFTRISHYRPWINQILQAN
7390 nM

Determine its reported fB Cleavage EC50: chymase C22S/F41R/L99H/F173L/Y215K/A226R (enzyme) IIGGTESKPHSRPYMAYLEIVTSNGPSKRCGGFLIRRNFVLTAAHCAGRSITVTLGAHNITEEEDTWQKLEVIKQFRHPKYNTSTHHHDIMLLKLKEKASLTLAVGTLPFPSQFNFVPPGRMCRVAGWGRTGVLKPGSDTLQEVKLRLMDPQACSHLRDFDHNLQLCVGNPRKTKSAFKGDSGGPLLCAGVAQGIVSKGRSDAKPPRVFTRISHYRPWINQILQAN
6640 nM
